# Tested on: MCF-10A
# assay details: MTT cell viability assay
# Type: cell-based
# assay context: Homo sapiens, MCF-10A 24 h, normal cells
pIC50: −log10 of the molar value. Where a name gives a salt, the structure may show the parent alone.

compound	pIC50
COc1cc(NC2=NC(=O)C(=Cc3c[nH]c4ccccc34)S2)cc(OC)c1OC [Les-6418]	< 4.70
COc1ccc(C=C2SC(Nc3cc(OC)c(OC)c(OC)c3)=NC2=O)cc1 [Les-6381]	5.08
COc1cccc2c1C(=O)c1c(O)c3c(c(O)c1C2=O)C[C@@](O)(C(=O)CO)C[C@@H]3O[C@H]1C[C@H](N)[C@H](O)[C@H](C)O1 [DOX, Doxorubicin hydrochloride, reference compound]	< 4.70
COc1cc(NC2=NC(=O)C(=Cc3ccc4cc[nH]c4c3)S2)cc(OC)c1OC [Les-6416]	< 4.70

----------
# Test system: A172
# assay details: MTT cell viability assay
# Assay type: cell-based
# assay context: Homo sapiens, A 172, A172 48 h
Counter-ions that a name gives are not always drawn.
Listed compounds paired with reported IC50
metric: IC50

compound	metric	val
COc1cc(NC2=NC(=O)C(=Cc3ccc4cc[nH]c4c3)S2)cc(OC)c1OC [Les-6416]	IC50	> 20 µM
COc1cccc2c1C(=O)c1c(O)c3c(c(O)c1C2=O)C[C@@](O)(C(=O)CO)C[C@@H]3O[C@H]1C[C@H](N)[C@H](O)[C@H](C)O1 [DOX, Doxorubicin hydrochloride, reference compound]	IC50	12.9 µM
COc1cc(NC2=NC(=O)C(=Cc3c[nH]c4ccccc34)S2)cc(OC)c1OC [Les-6418]	IC50	> 20 µM
COc1cc(NC2=NC(=O)C(=Cc3cccs3)S2)cc(OC)c1OC [Les-6423]	IC50	> 20 µM
COc1ccc(C=C2SC(Nc3cc(OC)c(OC)c(OC)c3)=NC2=O)cc1 [Les-6381]	IC50	8.65 µM
COc1cc(NC2=NC(=O)C(=Cc3ccco3)S2)cc(OC)c1OC [Les-6424]	IC50	> 20 µM

----------
# Test system: panel of 60 cancer cell lines
# Format: cell-based
# assay context: full panel mean, 48 h; read-out: MG_MID_60 LC50

item smiles	LC50 / µM
COc1cc(NC2=NC(=O)C(=Cc3c[nH]c4ccccc34)S2)cc(OC)c1OC	56.5

----------
Listed molecules paired with reported pIC50
# System: DLD-1
# assay details: MTT cell viability assay
# Type: cell-based
# assay context: Homo sapiens, DLD-1 24 h
pIC50: −log10 of the molar value. Counter-ions that a name gives are not always drawn.
metric: pIC50

molecule	val
COc1cc(NC2=NC(=O)C(=Cc3c[nH]c4ccccc34)S2)cc(OC)c1OC	< 4.70
COc1cc(NC2=NC(=O)C(=Cc3ccco3)S2)cc(OC)c1OC	< 4.70
COc1cccc2c1C(=O)c1c(O)c3c(c(O)c1C2=O)C[C@@](O)(C(=O)CO)C[C@@H]3O[C@H]1C[C@H](N)[C@H](O)[C@H](C)O1 [DOX, Doxorubicin hydrochloride, reference compound]	5.33
COc1cc(NC2=NC(=O)C(=Cc3ccc4cc[nH]c4c3)S2)cc(OC)c1OC	< 4.70
COc1ccc(C=C2SC(Nc3cc(OC)c(OC)c(OC)c3)=NC2=O)cc1	4.74
COc1cc(NC2=NC(=O)C(=Cc3cccs3)S2)cc(OC)c1OC	< 4.70

----------
# Tested on: C8-D1A
# assay details: MTT cell viability assay
# Assay type: cell-based
# assay context: Mus musculus, C8-D1A 48 h, normal cells
Structures can show the parent of a compound that is named as a salt.
Listed compounds paired with reported IC50

compound	test system	IC50 / µM
COc1cccc2c1C(=O)c1c(O)c3c(c(O)c1C2=O)C[C@@](O)(C(=O)CO)C[C@@H]3O[C@H]1C[C@H](N)[C@H](O)[C@H](C)O1 [DOX, Doxorubicin hydrochloride, reference compound]	C8-D1A	0.25
COc1cc(NC2=NC(=O)C(=Cc3c[nH]c4ccccc34)S2)cc(OC)c1OC	C8-D1A	7.42
COc1cc(NC2=NC(=O)C(=Cc3ccc4cc[nH]c4c3)S2)cc(OC)c1OC	C8-D1A	7.1
